Tested on: RPMI-8226 leukemia
Experiment: NCI tumour cell line growth inhibition, 48 h
# TGI annotations
Numbers only here, please. The scale is µM.

Consider the molecule `COc1cnc2c(c1)C(=O)c1c-2n(CCCN2CCNCC2)c(=O)c2cc([N+](=O)[O-])ccc12` and give its measured TGI.
2.28

Consider the molecule `O=C1CCCc2ccc3c(c21)CC1(Cc2ccccc2C1)C3` and give its measured TGI.
48.1

Consider the molecule CCOC1CC2OC(=O)C1C=C2C(=O)OC (stereo unspecified) and give its measured TGI.
53.9

Consider the molecule `CSc1ccc(C(=O)/C=C/c2ccccc2Cl)cc1` and give its measured TGI.
37.7

Consider the molecule `O=[N+]([O-])c1ccc(Sc2ccncn2)c([N+](=O)[O-])c1` and give its measured TGI.
8.16

Consider the molecule `O=C1/C(=C/c2ccc(Cl)cc2)CSC/C1=C\c1ccc(Cl)cc1` and give its measured TGI.
5

Further cases:
Consider the molecule `COc1ccc2c(c1)C(=O)c1c-2c(Nc2cccc(C(C)=O)c2)nc2ccccc12` and give its measured TGI.
70.7

Consider the molecule `COC1=CC(=O)C2=C(C[C@@]3(C)C(=C2)C(CO)=CC[C@H]3O)C1=O` and give its measured TGI.
44.5

Consider the molecule `CCCN1CCC(c2ccc(Nc3nc(Nc4cc(F)ccc4C(N)=O)c4cc[nH]c4n3)c(OC)c2)CC1` and give its measured TGI.
12.1

Consider the molecule `COc1cccc(Nc2nccc(-c3cnn4ncccc34)n2)c1` and give its measured TGI.
0.166

Consider the molecule `CN(C)CCOC(=O)Nc1nc2ccc(Sc3ccccc3)cc2[nH]1` and give its measured TGI.
17.9
